Procedure Details: Single ascending oral dose study in healthy volunteers: plasma pharmacokinetics
Type: in vivo, human
Assay Conditions: human, plasma, oral, 10 mg, 12 Hours Postdose; 10 mg; read-out: Plasma concentration, Mean
Assay Endpoint: concentration at 12 h (ng/mL)
Enter your answer as a number in ng/mL; do not include the unit.

Ask | Look up concentration at 12 h of Cn1cc(S(=O)(=O)[C@@](C)(F)C2CCN(C(=O)Nc3ccon3)CC2)c(C(F)F)n1 [Compound I] and report it.
Reply | 94.2

---

Procedure Details: Single ascending oral dose study in healthy volunteers: plasma pharmacokinetics
Format: in vivo, human
Assay Conditions: human, plasma, oral, 350 mg; read-out: Cmax, Geometric Mean
Assay Endpoint: Cmax

Ask | Look up Cmax of `Cn1cc(S(=O)(=O)[C@@](C)(F)C2CCN(C(=O)Nc3ccon3)CC2)c(C(F)F)n1` and report it.
Reply | 2790 ng/mL
